test system: HMEC-1 cells; assay: MTT proliferation assay, cytotoxicity of DXR formulations; assay type: cell-based; conditions: Homo sapiens, HMEC-1, HMEC-1, 24 h incubation with drug, total 96 h
reported-endpoint: IC50 (nM)

> print(dat)
                               smiles.input  subject.of.test  reported.endpoint  reported.value
1  COc1cccc2c1C(=O)c1c(O)c3c(c(O)c1C2=O)C[C@@](O)(C(=O)CO)C[C@@H]3O[C@H]1C[C@H](N)[C@H](O)[C@H](C)O1     HMEC-1 cells               IC50              72

###

system: HMEC-1 cells; experiment: MTT proliferation assay, cytotoxicity of DXR formulations; format: cell-based; conditions: Homo sapiens, HMEC-1, HMEC-1, 1 h incubation with drug, total 96 h
reported-endpoint: IC50 (nM)

> print(dat)
                               smiles.input  reported.endpoint  reported.value
1  COc1cccc2c1C(=O)c1c(O)c3c(c(O)c1C2=O)C[C@@](O)(C(=O)CO)C[C@@H]3O[C@H]1C[C@H](N)[C@H](O)[C@H](C)O1               IC50             434

###

Test system: HMEC-1 cells
Assay: MTT proliferation assay, cytotoxicity of DXR formulations
Assay type: cell-based
Settings: Homo sapiens, HMEC-1, HMEC-1, 48 h incubation with drug, total 96 h
Method: In vitro cytotoxicity of free doxorubicin (DXR) and DXR-containing liposomes was determined for […] and HMEC-1 cells using the MTT (3-(4,5-Dimethylthiazol-2-yl)-2,5-diphenyltetrazolium bromide) proliferation assay (Mosmann, 1983). […] Crystals were dissolved in acidic isopropanol and absorbance in each well was read at 570 nm in a microplate reader (Multiscan EX—Thermo Electron Corporation). IC50 of DXR mediated by the different formulations was determined from the dose/response curves.
reported-endpoint: IC50 (nM)

> print(dat)
                               smiles.input  quantity.unit  reported.value
1  COc1cccc2c1C(=O)c1c(O)c3c(c(O)c1C2=O)C[C@@](O)(C(=O)CO)C[C@@H]3O[C@H]1C[C@H](N)[C@H](O)[C@H](C)O1             nM              58
